Cited source: patent US11345713B2

Biological target: human TLR2 (Pam3CSK4, TLR1/2 agonist) in HEK-Blue hTLR2 cells (Homo sapiens, UniProt O60603)
Construct: host or cells: HEK-Blue hTLR2 (HEK-293)
Sequence (O60603 19-784 limits assumed): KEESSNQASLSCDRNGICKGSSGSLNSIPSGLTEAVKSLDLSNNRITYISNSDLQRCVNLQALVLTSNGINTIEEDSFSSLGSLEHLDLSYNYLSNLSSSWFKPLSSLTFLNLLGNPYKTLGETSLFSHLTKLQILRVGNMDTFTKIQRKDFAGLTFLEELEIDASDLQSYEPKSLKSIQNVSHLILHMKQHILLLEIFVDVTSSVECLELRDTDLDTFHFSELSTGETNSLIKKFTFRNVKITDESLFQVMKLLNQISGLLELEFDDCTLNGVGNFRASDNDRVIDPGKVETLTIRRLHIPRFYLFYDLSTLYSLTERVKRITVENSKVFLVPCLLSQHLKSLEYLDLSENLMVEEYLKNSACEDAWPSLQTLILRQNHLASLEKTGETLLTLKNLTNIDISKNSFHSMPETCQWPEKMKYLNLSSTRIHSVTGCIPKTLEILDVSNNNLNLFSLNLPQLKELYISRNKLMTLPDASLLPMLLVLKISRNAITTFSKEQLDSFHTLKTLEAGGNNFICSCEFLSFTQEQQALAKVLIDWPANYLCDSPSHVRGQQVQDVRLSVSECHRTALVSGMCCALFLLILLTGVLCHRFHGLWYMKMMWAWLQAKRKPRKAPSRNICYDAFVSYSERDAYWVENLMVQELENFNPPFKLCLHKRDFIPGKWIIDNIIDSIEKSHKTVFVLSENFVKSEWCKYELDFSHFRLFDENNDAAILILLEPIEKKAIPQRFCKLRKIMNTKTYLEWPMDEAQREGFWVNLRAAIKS
Assay: HEK-Blue hTLR2 antagonism assay (SEAP reporter) with Pam3CSK4 as agonist
Type: cell-based
Conditions: 2 h compound pre-incubation, approx. 3×EC50 Pam3CSK4, 18 h, SEAP OD 655 nm, background subtracted
recordedMetric: IC50 (µM)

smilesrecord=COc1cc(/C=C/c2ccc(F)cc2)cc(C=O)c1O recordedmetric=IC50 assayvalue=6.2
smilesrecord=CN1CCN(/N=C/c2cc(/C=C/c3ccc(N4CCCC4)cc3)cc(F)c2O)CC1 recordedmetric=IC50 assayvalue=0.5
smilesrecord=COc1cc(/C=C/c2ccc(N3CCOCC3)cc2)cc(C=O)c1O recordedmetric=IC50 assayvalue=2.5
smilesrecord=COc1cc(/C=C/c2ccc3ccccc3c2)cc(C=O)c1O recordedmetric=IC50 assayvalue=1
smilesrecord=CC(C)(C)OC(=O)N1CCCc2cc(/C=C/c3cc(F)c(O)c(C=O)c3)ccc21 recordedmetric=IC50 assayvalue=0.4
smilesrecord=CCN1CCN(/N=C/c2cc(/C=C/c3ccc(N4CCCC4)cc3)cc(F)c2O)CC1 recordedmetric=IC50 assayvalue=3.2
smilesrecord=COc1ccc(/C=C/c2cc(C=O)c(O)c(OC)c2)cc1 recordedmetric=IC50 assayvalue=1.7
smilesrecord=COc1cc(/C=C/C(=O)c2ccccc2)cc(C(=O)/C=C/c2ccccc2)c1O recordedmetric=IC50 assayvalue=3.1

I: CC(=O)N1CCc2sc(-c3cc(F)c(O)c(C=O)c3)cc2C1
II: COc1cc(-c2cc3c(s2)CCN(C(C)=O)C3)cc(C=O)c1O
III: O=Cc1cc(/C=C/c2ccncc2)cc(F)c1O
IV: Oc1c(F)cc(/C=C/c2ccc(N3CCCC3)cc2)cc1/C=N/Oc1ccccc1
V: COc1cc(/C=C/c2ccc(OCC3CC3)cc2)cc(C=O)c1O
**Query** Sort (5 compounds) by IC50: min first. Respond with the label ranking, as requested.
**Result** V, IV, II, III, I

A: COc1cc(/C=C/c2ccccc2)cc(C=O)c1O
B: CCN1CCN(c2ccc(/C=C/c3cc(O)c(C=O)c(F)c3)cc2)CC1
C: N=C(N)N/N=C/c1cc(/C=C/c2ccc(N3CCCC3)cc2)cc(F)c1O
D: Oc1c(F)cc(/C=C/c2ccc(N3CCCC3)cc2)cc1/C=N/N1CCNCC1
E: CCO/N=C/c1cc(/C=C/c2ccc(N3CCCC3)cc2)cc(F)c1O
**Query** Sort (5 compounds) by IC50: min first. Respond with the label ranking, as requested.
**Result** D, A, B, E, C

1: Cc1ccc(/C=C/c2ccc(O)c(C=O)c2)cn1
2: COc1cc(-c2cc3c(s2)CCN(C(=O)C2CC2)C3)cc(C(=O)/C=C/c2ccccc2)c1O
**Query** Input pair: 1 , 2 . Output: entry with lower IC50. Identify your pick by its label.
**Result** 2
(2: 7 µM, 1: 57.3 µM)

A: CC(C)(C)OC(=O)N1CCN(/N=C/c2cc(/C=C/c3ccc(N4CCCC4)cc3)cc(F)c2O)CC1
B: COc1cc(/C=C/C(=O)c2ccccc2)cc(C=O)c1O
**Query** Input pair: A , B . Output: entry with lower IC50. Identify your pick by its label.
**Result** A
(A: 3.6 µM, B: 6.4 µM)
